# inhibition listing for each entry below
test system: Mycobacterium tuberculosis FadD28 fatty-acid-AMP ligase; test: inhibitors of FadD28 bisubstrate probe binding, primary screen, biochemical, fluorescence polarization, single point (AID 588549); conditions: at 12.5 µM, hits give high values
About 780 (0.22%) of roughly 360,000 compounds were called active. The entries come from a sample that favours actives as a whole.
Only the number, expressed in %, is required.

compound="Nc1cc(C(=O)N2CCN(c3ccccc3Cl)CC2)ccc1N1CC2CC(C1)c1cccc(=O)n1C2 (centres undefined)" val=0.263
compound="O=c1c(F)cn(C2CCCO2)c(=O)n1Cc1ccccc1Cl (centres undefined)" val=-2.45
compound="CC12CCC(=O)N1C(C(=O)Nc1ccc(F)c(F)c1F)CS2 (centres undefined)" val=-2.85
compound=CCc1nc2c(OCCOc3ccccc3)cccn2c1N(C)C(=O)c1cccs1 val=-4.76

Read the next record carefully.
-- ask State, in one line, measured inhibition of CCS(=O)(=O)Nc1ccc(C2=NN(S(=O)(=O)c3ccc(F)cc3)C(c3ccco3)C2)cc1 (centres undefined)
-- reply -3.77
